- system.tested: Btk (Homo sapiens, UniProt Q06187)
- Construct: purified from insect cells as a full-length construct containing a N-terminal 6×-His tag; 6xHis (N); host or cells: insect cells (baculovirus Sf21 in Method B)
- Sequence (Q06187 whole entry): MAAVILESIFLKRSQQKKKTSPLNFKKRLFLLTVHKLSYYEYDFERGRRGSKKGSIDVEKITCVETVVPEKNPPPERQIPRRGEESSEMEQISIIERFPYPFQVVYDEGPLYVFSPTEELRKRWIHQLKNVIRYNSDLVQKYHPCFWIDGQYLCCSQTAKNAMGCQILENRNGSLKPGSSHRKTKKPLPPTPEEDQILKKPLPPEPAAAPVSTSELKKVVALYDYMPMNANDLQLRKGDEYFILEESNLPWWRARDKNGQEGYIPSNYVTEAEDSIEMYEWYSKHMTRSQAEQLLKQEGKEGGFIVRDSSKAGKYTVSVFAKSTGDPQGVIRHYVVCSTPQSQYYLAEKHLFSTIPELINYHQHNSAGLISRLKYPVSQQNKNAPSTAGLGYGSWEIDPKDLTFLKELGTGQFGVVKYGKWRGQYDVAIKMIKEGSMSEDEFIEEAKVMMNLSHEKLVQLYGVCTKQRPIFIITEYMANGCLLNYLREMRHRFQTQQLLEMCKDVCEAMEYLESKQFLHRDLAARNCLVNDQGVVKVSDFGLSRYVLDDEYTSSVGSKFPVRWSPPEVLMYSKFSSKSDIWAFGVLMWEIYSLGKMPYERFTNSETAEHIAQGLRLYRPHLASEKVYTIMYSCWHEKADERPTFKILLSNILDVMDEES
- procedure.details: Btk in vitro inhibitory activity (one of Methods A, B, C)
- Type: biochemical
- test.parameters: determined in one of three in vitro assays (Examples 125-127)
pIC50: −log10 of the molar value.
quantity.kind: pIC50

{"columns": ["compound", "val"],
 "data": [
  ["C=CC(=O)N1CC[C@@H](n2nc(-c3ccc(C)c(OC)c3)c3c(N)ncnc32)C1 [Example 83]", "> 7.00"],
  ["COc1cccc(-c2nn([C@@H]3CCN(C(=O)/C=C/CN(C)C)C3)c3ncnc(N)c23)c1 [Example 6]", "> 7.00"],
  ["CN(C(=O)/C=C/CN(C)C1CC1)c1cccc(-n2nc(-c3ccc(Cl)cc3)c3c(N)ncnc32)c1 [Example 25]", "> 7.00"],
  ["Cc1ccc(-c2nn([C@@H]3CCN(C(=O)/C=C/CN(C)C)C3)c3ncnc(N)c23)cc1 [Example 4]", "> 7.00"]
]}

---

Observed IC50 values for C-src (Homo sapiens, UniProt P12931) are listed in what follows.

{"columns": ["input.smiles", "IC50"],
 "data": [
  ["COc1cc(-c2nn(-c3ccc(NC(=O)/C=C/CN(C)C)cc3)c3ncnc(N)c23)ccc1C", "< 100 nM"],
  ["CN(C(=O)/C=C/CN(C)C1CC1)c1cccc(-n2nc(-c3ccc(Cl)cc3)c3c(N)ncnc32)c1", "100 to 1000 nM"],
  ["COc1cc(-c2nn([C@@H]3CCN(C(=O)/C=C/CN(C)C)C3)c3ncnc(N)c23)ccc1C", "< 100 nM"],
  ["COc1ccc(-c2nn([C@@H]3CCN(C(=O)/C=C/CN(C)C)C3)c3ncnc(N)c23)cc1", "100 to 1000 nM"],
  ["COc1cc(-c2nn([C@@H]3CCN(C(=O)/C=C/CN(C)C)C3)c3ncnc(N)c23)ccc1F", "100 to 1000 nM"],
  ["CN(C)C/C=C/C(=O)Nc1ccc(-n2nc(-c3ccc(Cl)cc3)c3c(N)ncnc32)cc1", "< 100 nM"],
  ["CN(C)C/C=C/C(=O)N(C)c1ccc(-n2nc(-c3ccc(Cl)cc3)c3c(N)ncnc32)cc1", "< 100 nM"],
  ["CN(C)C/C=C/C(=O)N(C)c1cccc(-n2nc(-c3ccc(Cl)cc3)c3c(N)ncnc32)c1", "100 to 1000 nM"],
  ["CN(C)C/C=C/C(=O)N1CC[C@@H](n2nc(-c3ccc(Cl)cc3F)c3c(N)ncnc32)C1", "< 100 nM"],
  ["COCCOc1ccc(-c2nn([C@@H]3CCN(C(=O)/C=C/CN(C)C)C3)c3ncnc(N)c23)cc1", "> 1000 nM"],
  ["CN(C/C=C/C(=O)Nc1cccc(-n2nc(-c3ccc(Cl)cc3)c3c(N)ncnc32)c1)C1CC1", "100 to 1000 nM"],
  ["C=CC(=O)Nc1ccc(-n2nc(-c3ccc(Cl)c(Cl)c3)c3c(N)ncnc32)cc1", "< 100 nM"],
  ["C=CC(=O)Nc1ccc(-n2nc(-c3ccc(Cl)cc3)c3c(N)ncnc32)cc1", "< 100 nM"],
  ["COc1cc(-c2nn(-c3cccc(N(C)C(=O)/C=C/CN(C)C4CC4)c3)c3ncnc(N)c23)ccc1C", "100 to 1000 nM"],
  ["Cc1ccc(-c2nn([C@@H]3CCN(C(=O)/C=C/CN(C)C)C3)c3ncnc(N)c23)cc1", "100 to 1000 nM"],
  ["COc1cccc(-c2nn([C@@H]3CCN(C(=O)/C=C/CN(C)C)C3)c3ncnc(N)c23)c1", "< 100 nM"],
  ["CN(C/C=C/C(=O)N1CC[C@@H](n2nc(-c3ccc(F)cc3)c3c(N)ncnc32)C1)C1CCC1", "> 1000 nM"],
  ["COc1cc(-c2nn(-c3ccc(N(C)C(=O)/C=C/CN(C)C)cn3)c3ncnc(N)c23)ccc1C", "< 100 nM"]
]}
